This section presents compounds with their documented inhibition at 0.1 µM values.
Target: recombinant human 17β-HSD1 (Homo sapiens)
Construct: made in house; host or cells: Sf9 insect cells (baculovirus, Bac to Bac Expression System)
Assay: Inhibition of recombinant human 17β-HSD1 (HPLC assay, conversion of 3H-estrone to estradiol)
Format: biochemical
Settings: 0.5 h; 100 nM inhibitor; 30 nM 3H-estrone, 1 mM NADPH, 30 min at RT; read-out: inhibition of rec. 17β-HSD1
Please respond with the number in % and leave the unit unwritten.

ENTRY SMILES | inhibition at 0.1 µM [%]
C[C@]12CC[C@@H]3c4ccc(O)cc4CC[C@H]3[C@@H]1[C@H](CCn1cc(-c3ccc(C(F)(F)F)cc3)nn1)CC2=O | 83
C[C@]12CC[C@@H]3c4ccc(O)cc4CC[C@H]3[C@@H]1[C@H](CCn1cc(CC3CCCCC3)nn1)CC2=O | 92

For the next question, use this compound.
Give recombinant human 17β-HSD1 (Homo sapiens) inhibition at 0.1 µM for "C[C@]12CC[C@@H]3c4ccc(O)cc4CC[C@H]3[C@@H]1[C@H](CCCc1cn(-c3ccc(F)cc3F)nn1)CC2(F)F" 88

* * *

Molecular target: recombinant human 17β-HSD1 (Homo sapiens)
Construct: made in house; host or cells: Sf9 insect cells (baculovirus, Bac to Bac Expression System)
Assay: Inhibition of recombinant human 17β-HSD1 (HPLC assay, conversion of 3H-estrone to estradiol)
Type: biochemical
Details: 0.5 h; 100 nM inhibitor; 30 nM 3H-estrone, 1 mM NADPH, 30 min at RT; read-out: inhibition of rec. 17β-HSD1
Please mark class 1 if the recorded inhibition at 0.1 µM is equal to or greater than 80%, and class 0 if it falls below.

ENTRY SMILES | CLASS NAME
CC(C)CCc1cn(CCC[C@@H]2CC(=O)[C@@]3(C)CC[C@@H]4c5ccc(O)cc5CC[C@H]4[C@H]23)nn1 | class 0
C[C@]12CC[C@@H]3c4ccc(O)cc4CC[C@H]3[C@@H]1[C@H](CCn1cc(-c3ccc(OC(F)(F)F)cc3)nn1)CC2=O | class 1
C[C@]12CC[C@@H]3c4ccc(O)cc4CC[C@H]3[C@@H]1[C@H](CCCn1cc(-c3ccc(F)cc3F)nn1)CC2=O | class 0
C[C@]12CC[C@@H]3c4ccc(O)cc4CC[C@H]3[C@@H]1[C@H](CCn1cc(-c3cccc(C(F)(F)F)c3)nn1)CC2=O | class 1
C[C@]12CC[C@@H]3c4ccc(O)cc4CC[C@H]3[C@@H]1[C@H](CCn1cc(-c3ccccc3C(F)(F)F)nn1)CC2=O | class 0
C[C@]12CC[C@@H]3c4ccc(O)cc4CC[C@H]3[C@@H]1[C@H](CCCn1cc(-c3cc(F)cc(F)c3)nn1)CC2=O | class 0

Okay, now this compound:
Answer whether inhibition at 0.1 µM of "C[C@]12CC[C@@H]3c4ccc(O)cc4CC[C@H]3[C@@H]1[C@H](CCn1cc(-c3ccc(F)cc3F)nn1)CC2=O" is greater than or equal to 80%. class 1

* * *

Biological target: 17β-HSD3 (Homo sapiens, UniProt P37058)
Construct: expressed in transfected cells; host or cells: MCF-7 cells stably expressing 17β-HSD3
Sequence (P37058 whole entry): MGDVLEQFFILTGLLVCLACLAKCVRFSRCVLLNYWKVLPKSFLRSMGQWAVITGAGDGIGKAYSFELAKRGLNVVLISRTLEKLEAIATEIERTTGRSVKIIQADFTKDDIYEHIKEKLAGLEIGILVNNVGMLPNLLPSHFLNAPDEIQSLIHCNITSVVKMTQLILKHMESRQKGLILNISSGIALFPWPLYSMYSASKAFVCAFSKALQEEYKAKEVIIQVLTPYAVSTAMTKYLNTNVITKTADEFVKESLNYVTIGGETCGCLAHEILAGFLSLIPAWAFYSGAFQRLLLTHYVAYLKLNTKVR
Assay: Inhibition of 17β-HSD3 in MCF-7 cell lines stably expressing the enzyme (HPLC, tritium labeled androstenedione)
Assay type: cell-based
Conditions: MCF7; 1 µM; MCF-7 cells expressing 17β-HSD3, androstenedione 2 nM
This section presents molecules with their documented inhibition at 1 µM values.
Please respond with the number in % and leave the unit unwritten.

Consider the worked cases shown below.
MOLECULE | inhibition at 1 µM (%)
C[C@]12CC[C@@H]3c4ccc(O)cc4CC[C@H]3[C@@H]1[C@H](CCn1cc(CC3CCCCC3)nn1)CC2=O [Compound 6] | 16
CC(C)CCc1cn(CCC[C@@H]2CC(=O)[C@@]3(C)CC[C@@H]4c5ccc(O)cc5CC[C@H]4[C@H]23)nn1 [Compound 17] | 3
C[C@]12CC[C@@H]3c4ccc(O)cc4CC[C@H]3[C@@H]1[C@H](CCCc1cn(-c3ccc(F)cc3F)nn1)CC2(F)F [Compound 302] | 13

For the next question, use this molecule.
What does the record list as inhibition at 1 µM for C[C@]12CC[C@@H]3c4ccc(O)cc4CC[C@H]3[C@@H]1[C@@H](CCCn1cc(-c3cccc(O)c3)nn1)CC2=O [Compound 22] ? 82

* * *

This section presents compounds with their documented inhibition at 1 µM values.
Biological target: recombinant human 17β-HSD1 (Homo sapiens, UniProt P14061)
Construct: made in house; host or cells: Sf9 insect cells (baculovirus, Bac to Bac Expression System)
Test: Inhibition of recombinant human 17β-HSD1 (HPLC assay, conversion of 3H-estrone to estradiol)
Type: biochemical
Conditions: 0.5 h; 1 µM inhibitor; 30 nM 3H-estrone, 1 mM NADPH, 30 min at RT; read-out: inhibition of rec. 17β-HSD1
Provide the measurement as a number trailed by its unit.

Consider the worked cases shown below.
COMPOUND | READING
C[C@]12CC[C@@H]3c4ccc(O)cc4CC[C@H]3[C@@H]1[C@H](CCn1cc(-c3ccccc3C(F)(F)F)nn1)CC2=O | 87%
CC(C)Cc1cn(CCC[C@@H]2CC(=O)[C@@]3(C)CC[C@@H]4c5ccc(O)cc5CC[C@H]4[C@H]23)nn1 | 85%
CC(C)Cc1cn(CC[C@@H]2CC(=O)[C@@]3(C)CC[C@@H]4c5ccc(O)cc5CC[C@H]4[C@H]23)nn1 | 92%
COc1ccc(-c2cn(CC[C@@H]3CC(=O)[C@@]4(C)CC[C@@H]5c6ccc(O)cc6CC[C@H]5[C@H]34)nn2)cc1 | 93%
C[C@]12CC[C@@H]3c4ccc(O)cc4CC[C@H]3[C@@H]1[C@H](CCn1cc(CCc3ccccc3)nn1)CC2=O | 98%
C[C@]12CC[C@@H]3c4ccc(O)cc4CC[C@H]3[C@@H]1[C@H](CCn1cc(-c3cccc(O)c3)nn1)CC2=O | 97%
CC(C)Cc1cn(CCC[C@H]2CC(=O)[C@@]3(C)CC[C@@H]4c5ccc(O)cc5CC[C@H]4[C@H]23)nn1 | 82%
CCCCn1cc(CCCC2CC(=O)[C@@]3(C)CC[C@@H]4c5ccc(O)cc5CC[C@H]4[C@H]23)nn1 (stereo partly drawn) | 88%

For the next question, use this compound.
What does the record list as inhibition at 1 µM for "CC(C)CCc1cn(CCC[C@H]2CC(=O)[C@@]3(C)CC[C@@H]4c5ccc(O)cc5CC[C@H]4[C@H]23)nn1" ? 82%

* * *

Molecular target: recombinant human 17β-HSD1 (Homo sapiens)
Construct: made in house; host or cells: Sf9 insect cells (baculovirus, Bac to Bac Expression System)
Assay: Inhibition of recombinant human 17β-HSD1 (HPLC assay, conversion of 3H-estrone to estradiol)
Format: biochemical
Settings: 0.5 h; 1 µM inhibitor; 30 nM 3H-estrone, 1 mM NADPH, 30 min at RT; read-out: inhibition of rec. 17β-HSD1
MEASUREMENT LABEL: inhibition at 1 µM (%)
Please respond with the number in % and leave the unit unwritten.

Consider the worked cases shown below.
ENTRY SMILES | inhibition at 1 µM (%)
C[C@]12CC[C@@H]3c4ccc(O)cc4CC[C@H]3[C@@H]1[C@H](CCCn1cc(CC3CCCCC3)nn1)CC2=O | 86
C[C@]12CC[C@@H]3c4ccc(O)cc4CC[C@H]3[C@@H]1[C@H](CCCc1cn(-c3ccc(F)cc3F)nn1)CC2=O | 88

What does the record list as inhibition at 1 µM for "C[C@]12CC[C@@H]3c4ccc(O)cc4CC[C@H]3[C@@H]1[C@H](CCn1cc(-c3cccc(C(F)(F)F)c3)nn1)CC2=O" ? 93

How about "C[C@]12CC[C@@H]3c4ccc(O)cc4CC[C@H]3[C@@H]1[C@@H](CCCn1cc(-c3cccc(O)c3)nn1)CC2=O" ? 86

* * *

This section presents molecules with their documented inhibition at 0.1 µM values.
Target: recombinant human 17β-HSD1 (Homo sapiens)
Construct: made in house; host or cells: Sf9 insect cells (baculovirus, Bac to Bac Expression System)
Sequence (P14061 1-328): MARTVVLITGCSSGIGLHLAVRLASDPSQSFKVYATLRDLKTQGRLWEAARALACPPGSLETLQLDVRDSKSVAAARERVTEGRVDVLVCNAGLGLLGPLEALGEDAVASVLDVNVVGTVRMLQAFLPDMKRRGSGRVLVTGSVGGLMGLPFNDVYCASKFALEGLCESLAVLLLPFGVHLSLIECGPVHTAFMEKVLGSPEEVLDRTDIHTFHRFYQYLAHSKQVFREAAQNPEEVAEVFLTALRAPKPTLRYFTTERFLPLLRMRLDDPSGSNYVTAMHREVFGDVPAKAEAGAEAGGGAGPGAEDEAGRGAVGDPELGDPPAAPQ
Assay: Inhibition of recombinant human 17β-HSD1 (HPLC assay, conversion of 3H-estrone to estradiol)
Format: biochemical
Settings: 0.5 h; 100 nM inhibitor; 30 nM 3H-estrone, 1 mM NADPH, 30 min at RT; read-out: inhibition of rec. 17β-HSD1
Please respond with the number in % and leave the unit unwritten.

MOLECULE | MEASUREMENT LABEL | READING
COc1ccc(-c2cn(CC[C@@H]3CC(=O)[C@@]4(C)CC[C@@H]5c6ccc(O)cc6CC[C@H]5[C@H]34)nn2)cc1 | inhibition at 0.1 µM | 75
C[C@]12CC[C@@H]3c4ccc(O)cc4CC[C@H]3[C@@H]1[C@H](CCCn1cc(CCc3ccccc3)nn1)CC2=O | inhibition at 0.1 µM | 81
C[C@]12CC[C@@H]3c4ccc(O)cc4CC[C@H]3[C@@H]1[C@H](CCn1cc(CCc3ccccc3)nn1)CC2=O | inhibition at 0.1 µM | 92
CC(C)CCc1cn(CCC[C@H]2CC(=O)[C@@]3(C)CC[C@@H]4c5ccc(O)cc5CC[C@H]4[C@H]23)nn1 | inhibition at 0.1 µM | 25
CCCCn1cc(CCCC2CC(=O)[C@@]3(C)CC[C@@H]4c5ccc(O)cc5CC[C@H]4[C@H]23)nn1 (some centres unmarked) | inhibition at 0.1 µM | 85
C[C@]12CC[C@@H]3c4ccc(O)cc4CC[C@H]3[C@@H]1[C@H](CCCn1cc(-c3ccc(OC(F)(F)F)cc3)nn1)CC2=O | inhibition at 0.1 µM | 67

What does the record list as inhibition at 0.1 µM for "C[C@]12CC[C@@H]3c4ccc(O)cc4CC[C@H]3[C@@H]1[C@H](CCn1cc(-c3ccccc3F)nn1)CC2=O" ? 81

How about "CC(C)Cc1cn(CCC[C@H]2CC(=O)[C@@]3(C)CC[C@@H]4c5ccc(O)cc5CC[C@H]4[C@H]23)nn1" ? 32

How about "C[C@]12CC[C@@H]3c4ccc(O)cc4CC[C@H]3[C@@H]1[C@H](CCn1cc(-c3cccc(O)c3)nn1)CC2=O" ? 88

How about "CC(C)CCc1cn(CC[C@@H]2CC(=O)[C@@]3(C)CC[C@@H]4c5ccc(O)cc5CC[C@H]4[C@H]23)nn1" ? 92

How about "C[C@]12CC[C@@H]3c4ccc(O)cc4CC[C@H]3[C@@H]1[C@H](CCCn1cc(CC3CCCCC3)nn1)CC2=O" ? 50

How about "CC(C)Cc1cn(CC[C@@H]2CC(=O)[C@@]3(C)CC[C@@H]4c5ccc(O)cc5CC[C@H]4[C@H]23)nn1" ? 86

How about "C[C@]12CC[C@@H]3c4ccc(O)cc4CC[C@H]3[C@@H]1[C@@H](CCCn1cc(-c3cccc(O)c3)nn1)CC2=O" ? 48

How about "CC(C)Cc1cn(CCC[C@@H]2CC(=O)[C@@]3(C)CC[C@@H]4c5ccc(O)cc5CC[C@H]4[C@H]23)nn1" ? 52
